Please go through the items and note down their Kd.
- system: T1, hmm.hTfRC (REGN2431), human transferrin receptor extracellular domain with hexahistidine-myc-myc tag (human, UniProt P02786 89-760)
- T1 construct: Monomeric recombinant protein, 79210 g/mol; also called hTFR-mmh; His-myc-myc-hTFRC ecto
- T1 sequence (P02786 other isoform, or with tags, fused parts or gaps): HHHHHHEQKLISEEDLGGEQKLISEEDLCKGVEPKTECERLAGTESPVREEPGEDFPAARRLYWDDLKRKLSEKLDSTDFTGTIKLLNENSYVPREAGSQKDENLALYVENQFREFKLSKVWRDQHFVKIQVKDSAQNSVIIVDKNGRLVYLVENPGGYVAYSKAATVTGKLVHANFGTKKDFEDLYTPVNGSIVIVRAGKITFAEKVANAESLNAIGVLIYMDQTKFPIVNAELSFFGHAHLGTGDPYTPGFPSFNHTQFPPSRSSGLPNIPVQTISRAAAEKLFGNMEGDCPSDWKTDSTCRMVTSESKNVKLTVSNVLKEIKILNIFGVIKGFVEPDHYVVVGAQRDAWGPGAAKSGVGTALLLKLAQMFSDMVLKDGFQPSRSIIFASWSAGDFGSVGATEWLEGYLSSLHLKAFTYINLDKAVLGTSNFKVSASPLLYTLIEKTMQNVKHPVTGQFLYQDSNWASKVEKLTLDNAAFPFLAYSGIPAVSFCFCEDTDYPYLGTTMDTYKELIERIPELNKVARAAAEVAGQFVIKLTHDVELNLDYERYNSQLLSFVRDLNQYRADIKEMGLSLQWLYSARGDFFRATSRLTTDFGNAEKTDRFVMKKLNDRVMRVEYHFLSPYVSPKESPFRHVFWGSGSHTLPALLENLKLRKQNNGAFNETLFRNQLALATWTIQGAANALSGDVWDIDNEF
- experimentDescription: SPR (Biacore), mAb captured on anti-human Fc, 100 nM hTFR-mmh, 25 C
Numbers only, in nM.

Known results for binders:
[
  {
    "binder": "12812B (antibody, human IgG1, kappa, V domains shown, Tested as bivalent human IgG1 from CHO primary supernatant) VH: QVQLVQSGAEVKKPGSSVRVSCKASRGTFSSYAISWVRQAPGQGLEWMGGIIPIFGTANYAQKFLARVTITADESTSTAYMELSSLRSEDTAVYYCAREKGWNYFDYWGQGTLVTVSS VL: DIQMTQSPPSVSASVGDRVTITCRASQGISSWLAWYQQKPGKAPKLLIYAASSLQSGVPSRFSGSGSGTDFTLTISSLQPEDFATYYCQQANSFPRTFGQGTKVEIKR",
    "resultType": "Kd",
    "testResult": 3.02
  },
  {
    "binder": "69331 (antibody, human IgG1, kappa, V domains shown, Tested as bivalent human IgG1 from CHO primary supernatant) VH: QVQLVESGGGVVQPGRSLRLSCIASGFTFSVYGIHWVRQAPGKGLEWMAVISHDGNIKHYADSVKGRFTISRDNSKNTLYLQINSLRTEDTAVYYCAKDTWNSLDTFDIWGQGTMVTVSS VL: DIQLTQSPSSLSASVGDRVTITCWASQGISSYLAWYQQKPGKAPKLLIYAASTLQSGVPSRFSGSGSGTEFTLTISSLQPEDFATYYCQQLNSYPLTFGGGTKVEIKR",
    "resultType": "Kd",
    "testResult": 41
  },
  {
    "binder": "69263 (antibody, human IgG1, kappa, V domains shown, Tested as bivalent human IgG1 from CHO primary supernatant) VH: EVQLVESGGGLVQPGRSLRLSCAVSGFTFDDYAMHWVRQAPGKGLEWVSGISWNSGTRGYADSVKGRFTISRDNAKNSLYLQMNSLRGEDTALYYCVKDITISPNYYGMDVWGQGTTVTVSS VL: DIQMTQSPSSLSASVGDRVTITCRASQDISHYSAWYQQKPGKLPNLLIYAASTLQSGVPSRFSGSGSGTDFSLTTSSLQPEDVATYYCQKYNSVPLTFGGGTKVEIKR",
    "resultType": "Kd",
    "testResult": 6.5
  }
]

Here are 4 binders. What values of Kd were reported for them?
1. 69348 (antibody, human IgG1, kappa, V domains shown, Tested as bivalent human IgG1 from CHO primary supernatant) VH: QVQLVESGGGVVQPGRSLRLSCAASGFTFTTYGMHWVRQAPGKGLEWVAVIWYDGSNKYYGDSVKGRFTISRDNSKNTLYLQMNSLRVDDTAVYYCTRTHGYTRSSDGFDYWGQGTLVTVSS VL: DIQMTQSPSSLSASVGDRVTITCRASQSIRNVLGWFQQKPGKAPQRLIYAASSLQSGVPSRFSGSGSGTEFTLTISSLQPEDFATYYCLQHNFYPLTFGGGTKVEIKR
2. 12802B (antibody, human IgG1, kappa, V domains shown, Tested as bivalent human IgG1 from CHO primary supernatant) VH: QVQLVESGGGLVKPGGSLRLSCAASGFTFSDYFMSWIRQAPGKGLEWVSYISSTGSTINYADSVKGRFTISRDNVKNSLYLQMTSLRVEDTAVYYCTRDNWNYEYWGQGTLVTVSS VL: EIVMTQSPATLSVSPGERATLSCRASQSVSINLAWYQQKPGQAPRLLIFVASTRATGIPARFSGSGSGTEFTLTISSLQSEDFATYYCQQYDIWPYTFGQGTKLEIKR
3. 69307 (antibody, human IgG1, kappa, V domains shown, Tested as bivalent human IgG1 from CHO primary supernatant) VH: EVQLVESGGGLVQPGGSLRLSCTASGFTFSNYWMTWVRQAPGKGLEWVANIKEDGSEKEYVDSVKGRFTISRDNAKNSLYLQMNSLRGEDTAVYYCARDGEQLVDYYYYYVMDVWGQGTTVTVSS VL: DIQMTQSPSSVSASVGDRVTITCRASQGISSWLAWYQQKPGKAPKLLIYAASSLQSGVPSRFSGSGSGTDFTLTISSLQPEDFATYYCQKADSLPYAFGQGTKLEIKR
4. 12801B (antibody, human IgG1, kappa, V domains shown, Tested as bivalent human IgG1 from CHO primary supernatant) VH: EVQLLESGGALVQPGGSLRLSCAASGFTFTSYAMHWVRQAPGKGLEWVSSIRGSGGGTYSADSVKGRFTISRDNSRDTLYLQMNSVRAEDTAVYYCARSHDYGAFDFFDYWGQGTLVTVSS VL: DIQMTQSPSSLSASVGDRVTITCRASQGIRTDLGWYQQKPGKAPKRLIYAASSLQSGVPSRFSGSGSGTEFTLTISSLRPEDFATFYCLQYNSYPLTFGGGTKVEIKR

## Output
1.62
0.236
0.226
0.513
